- Target: human B1R receptor (hB1R) (Homo sapiens)
- Construct: host or cells: CHO K1 cells
- Sequence (P46663 1-353): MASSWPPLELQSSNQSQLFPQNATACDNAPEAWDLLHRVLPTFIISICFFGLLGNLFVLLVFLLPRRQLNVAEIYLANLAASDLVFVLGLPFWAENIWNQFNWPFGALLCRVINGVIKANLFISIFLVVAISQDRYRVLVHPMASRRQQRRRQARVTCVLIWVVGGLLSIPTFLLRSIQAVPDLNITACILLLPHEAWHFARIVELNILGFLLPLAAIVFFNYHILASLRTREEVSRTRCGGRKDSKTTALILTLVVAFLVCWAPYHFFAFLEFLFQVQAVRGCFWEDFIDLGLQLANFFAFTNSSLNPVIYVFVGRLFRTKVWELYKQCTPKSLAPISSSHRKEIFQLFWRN
- Protocol Text: FLIPR Ca2+ assay on human bradykinin 1 receptor (CHO K1 hB1R cells)
- Assay type: cell-based
- Conditions: test substance 10 μM; CHO K1 cells with human B1R gene; agonist Lys-Des-Arg9-bradykinin 0.5 nM; compared to maximum achievable inhibition
Endpoint Name: inhibition at 10 µM (%)
Give the value, in units of %, as a plain number.

Request the reported inhibition at 10 µM associated with COc1cc(C)c(S(=O)(=O)N(C)CCOCC(=O)N2CCn3cccc3C2C(C)C)c(C)c1C (stereo not drawn) 103

Follow-up item: Cc1cc(C)c(S(=O)(=O)N(C)CCOCC(=O)N2CCn3c(CN4CCCC4)ccc3C2c2ccccc2)c(C)c1 (stereo not drawn) 102

Follow-up item: CCCC1c2cccn2CCN1C(=O)COCCN(Cc1ccccc1)S(=O)(=O)c1c(C)cc(OC)cc1C (stereo not drawn) 23
